molecular target: GABARAP, O95166; assay: median log2 fold change of GCK-ALFA target abundance (FLAG IP / Myc IP barcode read proportion) (log2 ratio); each designed protein is fused to an ALFA-tag nanobody in HEK293 cells to bring the named protein to FLAG-tagged glucokinase (GCK); Myc marks an untargeted standard; higher = target protein stabilised (more abundant); details: target protein: 3xFLAG-MCP-GCK-ALFA reporter; HEK293 landing pad (RPLP)
Sequence (O95166 whole entry, the tested form may be a part): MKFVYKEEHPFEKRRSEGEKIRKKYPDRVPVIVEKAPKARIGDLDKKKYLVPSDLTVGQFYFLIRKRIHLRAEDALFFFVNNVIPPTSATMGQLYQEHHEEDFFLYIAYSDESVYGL
The full ranking holds about 4,500 sequences; the median of “median log2 fold change of GCK-ALFA target abundance (FLAG IP / Myc IP barcode read proportion)” is about 0.078, and the lowest 2% start at about -0.6. The entries come from a sample that favours the lowest values as a whole.
Reported values of median log2 fold change for individual entries
# answer = number (no unit)

Request the reported median log2 fold change associated with GBRAP_150_3890 (protein) SLEELLTIADTALDILELDIESGGKTIDQTLKVVQALVDEAKNFSPELQKLAEEALKKVEEAKKLKEEGGDQKEIDKLLKEAKKKLEELIKLLEKKIKEK 0.232

Proceed to GBRAP_160_4310 (protein) KEELEALKKEVKEIFEEAKKLIEGETKEQQKAIVKVALGEVILLAFESPAITEEAEEKIAEIADEAIATLDANPDLTTEEIKKLLEEAEKKILELIEKLK -0.615

Provenance of the data: the supplement of paper PMC12632987
